target.of.assay: UniProtKB P42336
Sequence (P42336 whole entry, species assumed): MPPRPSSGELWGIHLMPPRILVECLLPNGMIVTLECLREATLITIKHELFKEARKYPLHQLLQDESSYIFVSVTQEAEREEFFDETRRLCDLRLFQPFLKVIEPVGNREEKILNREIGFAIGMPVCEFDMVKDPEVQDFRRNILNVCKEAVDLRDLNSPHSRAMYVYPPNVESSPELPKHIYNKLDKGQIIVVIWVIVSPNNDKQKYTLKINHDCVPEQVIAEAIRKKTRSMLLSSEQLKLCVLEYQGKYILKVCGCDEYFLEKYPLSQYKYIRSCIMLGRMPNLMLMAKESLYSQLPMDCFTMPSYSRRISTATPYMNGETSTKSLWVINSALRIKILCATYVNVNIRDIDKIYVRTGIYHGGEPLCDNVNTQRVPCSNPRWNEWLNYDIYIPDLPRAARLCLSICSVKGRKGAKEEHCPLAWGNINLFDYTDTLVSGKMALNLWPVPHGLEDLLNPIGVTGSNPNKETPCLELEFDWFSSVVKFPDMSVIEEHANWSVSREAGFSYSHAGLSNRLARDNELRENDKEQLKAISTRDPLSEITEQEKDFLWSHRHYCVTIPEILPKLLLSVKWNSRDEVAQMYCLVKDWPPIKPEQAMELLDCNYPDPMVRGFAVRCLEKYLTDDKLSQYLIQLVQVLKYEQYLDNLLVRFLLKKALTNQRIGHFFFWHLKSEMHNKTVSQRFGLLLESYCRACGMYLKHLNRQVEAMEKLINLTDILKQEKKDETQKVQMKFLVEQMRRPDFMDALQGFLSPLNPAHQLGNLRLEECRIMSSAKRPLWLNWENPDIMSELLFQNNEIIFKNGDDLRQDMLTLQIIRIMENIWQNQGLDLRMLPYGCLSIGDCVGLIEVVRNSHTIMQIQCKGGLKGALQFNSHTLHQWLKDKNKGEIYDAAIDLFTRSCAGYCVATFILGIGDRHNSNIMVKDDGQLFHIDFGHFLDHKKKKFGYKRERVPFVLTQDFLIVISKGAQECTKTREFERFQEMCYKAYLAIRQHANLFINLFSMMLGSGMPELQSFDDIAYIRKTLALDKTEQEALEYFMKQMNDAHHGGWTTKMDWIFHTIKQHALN
Sequence (P27986 whole entry partner, species assumed): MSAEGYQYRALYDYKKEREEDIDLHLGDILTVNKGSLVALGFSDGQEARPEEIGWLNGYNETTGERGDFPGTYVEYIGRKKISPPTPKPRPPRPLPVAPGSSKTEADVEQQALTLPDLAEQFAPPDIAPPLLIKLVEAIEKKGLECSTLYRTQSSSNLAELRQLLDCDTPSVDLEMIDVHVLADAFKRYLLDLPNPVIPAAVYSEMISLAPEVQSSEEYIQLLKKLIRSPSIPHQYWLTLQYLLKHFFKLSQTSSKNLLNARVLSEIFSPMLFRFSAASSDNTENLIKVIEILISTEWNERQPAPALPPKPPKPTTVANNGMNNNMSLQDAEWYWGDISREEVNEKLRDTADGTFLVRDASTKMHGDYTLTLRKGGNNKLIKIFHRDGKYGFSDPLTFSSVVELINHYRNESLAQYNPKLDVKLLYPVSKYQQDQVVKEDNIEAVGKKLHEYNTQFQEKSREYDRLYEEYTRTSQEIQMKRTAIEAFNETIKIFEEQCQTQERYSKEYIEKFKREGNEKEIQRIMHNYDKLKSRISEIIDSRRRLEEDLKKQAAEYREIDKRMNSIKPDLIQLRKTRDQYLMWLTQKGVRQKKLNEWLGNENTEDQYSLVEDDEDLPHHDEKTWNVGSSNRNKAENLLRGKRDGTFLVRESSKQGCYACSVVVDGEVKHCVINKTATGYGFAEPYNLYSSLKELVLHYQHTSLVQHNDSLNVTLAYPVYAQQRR
measurement.description: PI3K-alpha fluorescence polarization assay
assay.setup: read-out: IC50 PI3Kα; listed as 529
pIC50: −log10 of the molar value.
parameter: pIC50

* CCc1nc(-c2ccc(NC(=O)Nc3ccc(N4CCC(N(C)C)CC4)cc3)cc2)nc(N2CCOCC2)n1 | 7.98

###

Overview of recorded log10 of IC50 for various compounds
target.of.assay: PI3K-γ (Homo sapiens)
Sequence (P48736 whole entry, species assumed): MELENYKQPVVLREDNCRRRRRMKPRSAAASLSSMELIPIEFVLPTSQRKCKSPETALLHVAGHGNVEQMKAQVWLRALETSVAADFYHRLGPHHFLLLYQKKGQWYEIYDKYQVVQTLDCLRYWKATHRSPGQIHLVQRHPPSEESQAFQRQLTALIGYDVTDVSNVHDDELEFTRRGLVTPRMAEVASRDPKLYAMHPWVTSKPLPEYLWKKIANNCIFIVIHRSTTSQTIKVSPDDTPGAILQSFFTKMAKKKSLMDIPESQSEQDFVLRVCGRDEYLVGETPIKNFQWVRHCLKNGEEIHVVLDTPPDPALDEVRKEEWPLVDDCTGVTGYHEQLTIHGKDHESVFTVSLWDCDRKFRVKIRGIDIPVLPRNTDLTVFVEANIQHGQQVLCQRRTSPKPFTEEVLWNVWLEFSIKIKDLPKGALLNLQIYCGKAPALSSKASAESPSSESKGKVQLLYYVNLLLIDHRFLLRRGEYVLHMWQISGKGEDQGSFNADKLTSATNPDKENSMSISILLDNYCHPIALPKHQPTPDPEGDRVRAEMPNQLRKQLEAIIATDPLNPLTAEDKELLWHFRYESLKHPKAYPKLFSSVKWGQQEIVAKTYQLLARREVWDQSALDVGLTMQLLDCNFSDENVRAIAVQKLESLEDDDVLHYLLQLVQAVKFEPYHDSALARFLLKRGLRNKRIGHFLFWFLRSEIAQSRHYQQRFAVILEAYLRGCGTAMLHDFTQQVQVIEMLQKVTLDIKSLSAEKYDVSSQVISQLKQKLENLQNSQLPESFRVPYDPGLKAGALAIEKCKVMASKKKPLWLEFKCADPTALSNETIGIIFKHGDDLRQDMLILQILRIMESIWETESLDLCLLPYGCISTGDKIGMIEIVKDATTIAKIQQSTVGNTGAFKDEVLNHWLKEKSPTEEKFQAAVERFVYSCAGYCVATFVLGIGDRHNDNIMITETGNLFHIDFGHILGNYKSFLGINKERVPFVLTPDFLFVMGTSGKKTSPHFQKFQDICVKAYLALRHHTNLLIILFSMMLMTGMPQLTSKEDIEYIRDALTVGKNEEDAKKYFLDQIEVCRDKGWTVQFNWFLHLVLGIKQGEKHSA
measurement.description: PI3K-gamma fluorescence polarization assay
assay.setup: read-out: IC50 PI3Kγ
parameter: log10 of IC50 (log10 of the value in nM)

- CC(C)N1CCN(C(=O)c2ccc(NC(=O)Nc3ccc(-c4nc(N5CCOCC5)nc(N5C6COCC5COC6)n4)cc3)cc2)CC1: 1.56
- CN1CCN(C(=O)c2ccc(NC(=O)Nc3ccc(-c4nc(N5CCOCC5)nc(N5C6CCC5COC6)n4)cc3)cc2)CC1(C)C: 1.29
- C[C@@H]1COCCN1c1nc(-c2ccc(NC(=O)Nc3ccc(N4CCC(N(C)C)CC4)cc3)cc2)nc(N2CCOC[C@H]2C)n1: 3.21
- CC(C)Nc1nc(-c2ccc(NC(=O)Nc3ccc(N4CCN(C)CC4)cc3)cc2)nc(N2C3CCC2COC3)n1: 3.73
- CN(C)[C@H]1CCN(C(=O)c2ccc(NC(=O)Nc3ccc(-c4nc(N5CCOCC5)nc(N5C6CCC5COC6)n4)cc3)cc2)C1: 1.23
- O=C(Nc1ccncc1)Nc1ccc(-c2nc(N3CCOCC3)nc(N3CC4COC(C3)O4)n2)cc1 (stereo not shown): 1.51
- CC(C)(C)OC(=O)CNC1CCN(c2nc(-c3ccc(NC(=O)Nc4ccncc4)cc3)nc(N3CC4CCC(C3)O4)n2)CC1: 3.67
- O=C(Nc1ccncc1)Nc1ccc(-c2nc(N3CCN(Cc4ccccc4)CC3)nc(N3CC4CCC(C3)O4)n2)cc1: 3.47
- CN(C)C(=O)c1ccc(NC(=O)Nc2ccc(-c3nc(C4CCOCC4)nc(N4C5CCC4COC5)n3)cc2)cc1: 3.14
- O=C(Nc1ccc(C(=O)N2CCOCC2)cc1)Nc1ccc(-c2nc(N3CCOCC3)nc(N3CCOCC3)n2)cc1: 0.70
- N#Cc1ccc(NC(=O)Nc2ccc(-c3nc(N4CCOCC4)nc(N4C5CCC4COC5)n3)cc2)cc1: 2.46
- O=C(Nc1ccncc1)Nc1ccc(-c2nc(N3C4CCC3COC4)nc(N3C4CCC3COC4)n2)cc1: 3.77
- CC(C)c1nc(-c2ccc(NC(=O)Nc3ccc(C(=O)N4CCN(C(C)C)CC4)cc3)cc2)nc(N2CCOCC2)n1: 1.23
- O=C(Nc1ccncc1)Nc1ccc(-c2nc(N3CCC3)nc(N3CCOCC3)n2)cc1: 2.00
- CC(C)N1CCN(C(=O)c2ccc(NC(=O)Nc3ccc(-c4nc(C5CCOCC5)nc(N5CCOC[C@H]5C)n4)cc3)cc2)CC1: 2.68
- CCN1CCN(C(=O)c2ccc(NC(=O)Nc3ccc(-c4nc(N5CCOCC5)nc(N5C6CCCC5COC6)n4)cc3)cc2)CC1: 1.77
- CCCCc1nc(-c2ccc(NC(=O)Nc3ccc(C(=O)N(C)CCN(C)C)cc3)cc2)nc(N2CCOCC2)n1: 1.52
- CN1CCN(Nc2nc(-c3ccc(NC(=O)Nc4ccccc4)cc3)nc(N3CCOCC3)n2)CC1: 2.73
- C[C@H]1COCCN1c1nc(-c2ccc(NC(=O)NC3CCN(C)CC3)cc2)nc(N2CCOCC2)n1: 3.88
- O=C(Nc1ccc(OCCO)cc1)Nc1ccc(-c2nc(N3C4CCC3COC4)nc(N3C4CCC3COC4)n2)cc1: 3.86
- O=C(Nc1ccc(C(=O)N2CCC(N3CCCCC3)CC2)cc1)Nc1ccc(-c2nc(N3CCOCC3)nc(N3C4COCC3COC4)n2)cc1: 1.59
- CN(C)CCNC(=O)c1ccc(NC(=O)Nc2ccc(-c3nc(C4=CCOCC4)nc(N4CCOCC4)n3)cc2)cc1: 1.08
- C[C@@H]1COCCN1c1nc(-c2ccc(NC(=O)Nc3ccc(CN4CCCC4)cc3)cc2)nc(N2CCOC[C@H]2C)n1: 3.63
- CN1CCN(c2ccc(Nc3nc(-c4ccc(NC(=O)Nc5ccc(C(N)=O)cc5)cc4)nc(N4CC5CCC(C4)O5)n3)cc2)CC1: 2.83
- CN1CCN(C(=O)c2ccc(NC(=O)Nc3ccc(-c4nc(-c5ccccc5)nc(N5CCOCC5)n4)cc3)cc2)CC1: 1.19
- O=C(Nc1ccc(CCO)cc1)Nc1ccc(-c2nc(N3CCOCC3)nc(N3C4CCC3COC4)n2)cc1: 1.88
- CCN1CCN(C(=O)c2ccc(NC(=O)Nc3ccc(-c4nc(N5C6CCC5COC6)nc(N5CCOC[C@@H]5C)n4)cc3)cc2)CC1: 1.61
- CCCCc1nc(-c2ccc(NC(=O)Nc3ccc(C(=O)O)cc3)cc2)nc(N2CCOCC2)n1: 2.16
